assayedTarget: Dimer of Gag-Pol polyprotein [501-599] (Human immunodeficiency virus 1, UniProt P03367)
Construct: 501-599
measurementNotes: Protease Inhibition Assay
particulars: pH 5.5; 30 °C
List of log10 IC50 values.
log10 IC50, nM

O=C(N[C@@H](Cc1ccccc1)[C@@H](O)C[C@@H](Cc1ccccc1)C(=O)NC1c2ccccc2C[C@H]1O)O[C@H]1CCOC1 (some centres not stated)	-1.52
O=C(N[C@@H](Cc1ccccc1)[C@@H](O)C[C@]1(Cc2ccccc2)N=CC(C2c3ccccc3C[C@H]2O)C1=O)O[C@H]1CCOC1 (some centres not stated)	0.30
CC(C)C[C@@]1(C2C=N[C@@](Cc3ccccc3)(C[C@H](O)[C@H](Cc3ccccc3)NC(=O)O[C@H]3CCOC3)C2=O)N=CC([C@@H](Cc2ccccc2)C(N)=O)C1=O (some centres not stated) [Pyrrolinone deriv. 2]	0.11
CC(C)C[C@@]1(C2C=N[C@@](Cc3ccccc3)(C[C@H](O)[C@H](Cc3ccccc3)NC(=O)OC(C)(C)C)C2=O)N=CC([C@@H](Cc2ccccc2)C(N)=O)C1=O (some centres not stated) [Pyrrolinone deriv. 1]	1.00
CC(C)(C)OC(=O)N[C@@H](Cc1ccccc1)[C@@H](O)C[C@]1(Cc2ccccc2)N=CC(C2c3ccccc3C[C@H]2O)C1=O (some centres not stated) [Pyrrolinone deriv. 6]	1.08
CC(C)(C)OC(=O)N[C@@H](Cc1ccccc1)[C@@H](O)C[C@@H](Cc1ccccc1)C(=O)NC1c2ccccc2C[C@H]1O (some centres not stated)	-0.52

Would you kindly look at the next entry?
Exam item: Consider the compound CC(C)C[C@H](NC(=O)[C@H](Cc1ccccc1)C[C@H](O)[C@H](Cc1ccccc1)NC(=O)OC(C)(C)C)C(=O)N[C@@H](Cc1ccccc1)C(N)=O [Hydroxyethylene dipeptide isostere] and give its measured log10 IC50.
Marked response: -0.22
